Assay: reduced mouse 2C T cell binding to pMHC/ICAM-1 vesicles – MLPCN validation set, flow cytometry, LFA-1/ICAM-1 modulator project, pilot screen (AID 2523);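 also: mean PE anti-B7-1 fluorescence of CD8+ cells relative to row control; 100% = QL9-loaded vesicles with DMSO vehicle in the same plate row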
Conditions: 2C mouse CD8+ T cells, at 7 µM, stronger effect = lower value
The reader will find reported vesicle binding response values listed item by item below.
Provide the reading as a plain figure in %.

Look over these answered cases.
>>> numeric_readout("O=C(CNC(=O)OCc1ccccc1)Oc1cc2oc(=O)cc(-c3ccccc3)c2cc1Cl")
423
>>> numeric_readout("COc1ccccc1/C=C/CN1CCN(Cc2ccc(F)cc2)C(CCO)C1 (stereo not given)")
171
>>> numeric_readout("CC(=O)Oc1ccc(C(c2ccc(OC(C)=O)cc2)c2ccccn2)cc1")
203
>>> numeric_readout("COc1cc(/C=C/C(=O)CC(=O)/C=C/c2ccc(O)c(OC)c2)ccc1O")
39.9
>>> numeric_readout("Cn1cc(C2N3CC4(C)CN2CC(C)(C3)C4=O)c2ccccc21 (stereo not given)")
485

Req: Reported vesicle binding response for `CCCCOc1ccc(C(=O)CCN2CCCCC2)cc1` : what is it?
Resp: 108

Req: Reported vesicle binding response for COc1cc(C2Nc3ccccc3NC3=C2C(=O)CC(c2ccc(OC)c(OC)c2)C3)ccc1O (stereo not given) : what is it?
Resp: 104

Req: Reported vesicle binding response for `COc1ccc(C2=CC(=O)C=CC2=O)cc1` : what is it?
Resp: 146

Req: Reported vesicle binding response for `CO[C@H]1C=CO[C@@]2(C)Oc3c(C)c(O)c4c(O)c(c(C=NN5CCN(C)CC5)c(O)c4c3C2=O)NC(=O)C(C)=CC=C[C@H](C)[C@H](O)[C@@H](C)[C@@H](O)[C@@H](C)[C@H](OC(C)=O)[C@@H]1C` : what is it?
Resp: 575

Req: Reported vesicle binding response for `c1cnc2c(c1)ccc1cccnc12` : what is it?
Resp: 192

----------
Assay: yeast AGP1-GFP level changes, GLN3 branch – cell-based, multiplex flow cytometry, S. cerevisiae, primary screen (AID 1887);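 also: AGP1-GFP fusion strain of S. cerevisiae within a five-strain barcoded multiplex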
Settings: 3 h, at 10 µM, stronger effect = higher value
Results filed as inconclusive are left out.
property measured: GFP response, % of DMSO (%)
Provide the reading as a plain figure in %.

Look over these answered cases.
>>> numeric_readout("COc1ccc2c3c([nH]c2c1)C1(NCC3)C(=O)Nc2ccccc21 (stereo not drawn)")
101
>>> numeric_readout("O[C@H]1COC2C1OC[C@@H]2O (stereo partly drawn)")
118

Okay, next one:
Req: Reported GFP response, % of DMSO for `Nc1ccc(S(N)(=O)=O)cc1N` : what is it?
Resp: 91.7

----------
Biological target: ATP-binding cassette sub-family B member 6 (Homo sapiens)
Assay: blockers of ABCB6-driven porphyrin uptake – K562-ABCB6 cells, flow cytometry, validation set, pilot screen (AID 588550);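 also: 0% = DMSO wells and 100% = benzethonium chloride 70 µM positive control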
Conditions: K562-ABCB6 porphyrin accumulation, 1 h, at 10 µM, stronger effect = higher value
Activity calls are given as the source filed them.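 Rule for the calls: active = inhibition above the screen-wide mean plus 3 SD, about 51%; inactive = the rest.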
property measured: inhibition

>>> result("C=CCOc1ccc(C(=O)CC)cc1OC")
"-4% (inactive)"
>>> result("CN1C(C(=O)Nc2ccccn2)=C(O)c2sccc2S1(=O)=O")
"9% (inactive)"
>>> result("O=C(/C=C/c1ccccc1)NC(=O)c1ccccc1O")
"0% (inactive)"
>>> result("CC(=O)Nc1ccc2[nH]c(C)c(CC=C(Cl)Cl)c(=O)c2c1")
"11% (inactive)"
>>> result("O=C(O)c1ccccc1OCCOc1ccccc1")
"8% (inactive)"

Okay, next one:
Req: Reported inhibition for COC(=O)c1ccc(OCCCCN2CC(C)OC(C)C2)cc1 (stereo not drawn) : what is it?
Resp: 5% (inactive)

----------
The reader will find reported inhibition values listed item by item below.
Biological target: Integrin beta-1 (Homo sapiens) + Integrin alpha-4 (Homo sapiens) (UniProt P13612+P05556)
Sequence (P05556 whole entry, looked up): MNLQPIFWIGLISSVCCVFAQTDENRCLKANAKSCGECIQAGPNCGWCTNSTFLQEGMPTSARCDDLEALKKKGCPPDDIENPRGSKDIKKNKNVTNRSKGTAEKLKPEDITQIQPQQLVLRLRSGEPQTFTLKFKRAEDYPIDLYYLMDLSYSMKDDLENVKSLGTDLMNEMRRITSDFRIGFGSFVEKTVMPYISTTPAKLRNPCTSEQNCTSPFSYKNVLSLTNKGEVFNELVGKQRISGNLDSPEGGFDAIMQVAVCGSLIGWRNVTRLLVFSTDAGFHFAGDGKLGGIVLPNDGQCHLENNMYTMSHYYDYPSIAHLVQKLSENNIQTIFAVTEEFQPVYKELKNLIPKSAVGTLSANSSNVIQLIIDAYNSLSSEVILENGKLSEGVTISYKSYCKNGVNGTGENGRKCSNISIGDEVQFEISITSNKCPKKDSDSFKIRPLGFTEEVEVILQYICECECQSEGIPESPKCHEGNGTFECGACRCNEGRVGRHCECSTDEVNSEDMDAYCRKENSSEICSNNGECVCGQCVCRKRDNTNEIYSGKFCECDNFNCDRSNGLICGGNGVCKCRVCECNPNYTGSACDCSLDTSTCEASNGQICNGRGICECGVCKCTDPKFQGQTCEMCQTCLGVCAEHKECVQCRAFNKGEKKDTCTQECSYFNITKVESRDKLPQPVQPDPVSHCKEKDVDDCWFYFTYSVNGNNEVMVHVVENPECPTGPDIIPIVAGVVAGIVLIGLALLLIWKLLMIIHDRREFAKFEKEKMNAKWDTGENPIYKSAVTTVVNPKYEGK
Sequence (P13612 whole entry, looked up): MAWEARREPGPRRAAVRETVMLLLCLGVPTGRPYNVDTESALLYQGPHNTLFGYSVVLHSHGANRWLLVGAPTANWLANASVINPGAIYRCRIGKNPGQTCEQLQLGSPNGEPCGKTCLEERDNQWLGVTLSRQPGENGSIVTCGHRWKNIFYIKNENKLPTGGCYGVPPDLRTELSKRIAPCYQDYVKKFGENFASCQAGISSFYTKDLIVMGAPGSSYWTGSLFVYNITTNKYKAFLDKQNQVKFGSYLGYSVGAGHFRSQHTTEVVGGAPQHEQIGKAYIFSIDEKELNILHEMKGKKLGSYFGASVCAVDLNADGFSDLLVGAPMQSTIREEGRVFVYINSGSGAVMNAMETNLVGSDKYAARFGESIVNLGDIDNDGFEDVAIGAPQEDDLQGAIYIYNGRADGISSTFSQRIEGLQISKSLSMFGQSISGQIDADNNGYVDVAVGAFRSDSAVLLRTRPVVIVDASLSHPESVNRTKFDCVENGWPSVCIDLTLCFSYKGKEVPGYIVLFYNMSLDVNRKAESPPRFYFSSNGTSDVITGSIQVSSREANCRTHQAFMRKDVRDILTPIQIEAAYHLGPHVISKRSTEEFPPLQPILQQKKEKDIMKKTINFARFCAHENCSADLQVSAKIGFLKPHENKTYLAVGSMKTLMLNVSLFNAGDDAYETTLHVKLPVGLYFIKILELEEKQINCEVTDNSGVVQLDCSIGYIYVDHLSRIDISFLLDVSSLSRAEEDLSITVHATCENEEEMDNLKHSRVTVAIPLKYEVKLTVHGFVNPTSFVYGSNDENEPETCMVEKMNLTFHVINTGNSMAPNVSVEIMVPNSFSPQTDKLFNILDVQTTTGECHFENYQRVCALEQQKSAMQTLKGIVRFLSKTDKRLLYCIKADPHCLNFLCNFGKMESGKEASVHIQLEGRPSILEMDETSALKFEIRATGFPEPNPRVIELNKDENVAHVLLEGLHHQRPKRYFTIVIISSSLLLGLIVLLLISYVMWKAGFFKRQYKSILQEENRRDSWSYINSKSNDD
Assay: alpha4beta1 integrin LIBS antibody binding reduction – U937 cells, HUTS-21 mAb, flow cytometry, validation set, VLA-4 allosteric modulator project, pilot screen (AID 2674);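 also: antibody binding induced by the VLA-4 ligand LDV present at three times its Kd; 0% = LDV ligand with antibody and no compound and 100% = antibody without LDV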
Settings: HUTS-21 LIBS mAb binding, at 6.7 µM, stronger effect = higher value, binding induced by LDV ligand
Provide the reading as a plain figure in %.

Look over these answered cases.
>>> numeric_readout("O=C(/C=C/c1ccccc1)c1ccccc1")
2.58
>>> numeric_readout("CC(C)COCC(CN(Cc1ccccc1)c1ccccc1)N1CCCC1 (configuration not stated)")
1.61
>>> numeric_readout("C=CCn1c(N2CCCCCC2)nc2c1c(=O)n(C)c(=O)n2C")
7.4
>>> numeric_readout("O=C(O)CCSCCC(=O)O")
8.88
>>> numeric_readout("CN(C)c1ccc(C(CN)c2c[nH]c3ccccc23)cc1 (configuration not stated)")
9.63
>>> numeric_readout("COc1ccc(-c2csc(-c3cccnc3)n2)cc1C")
0.94
>>> numeric_readout("CCOC(=O)C1=C(C)N[C@@]2(O)c3ccccc3C(=O)[C@@]12O")
-7.25
>>> numeric_readout("COc1ccc(CCN(C)Cc2nc(Cc3ccc(OC)c(OC)c3)no2)cc1OC")
15.1
>>> numeric_readout("C#C[C@]1(O)CC[C@H]2[C@@H]3CCC4=CC(=O)CC[C@@H]4[C@H]3CC[C@@]21CC")
15.1
>>> numeric_readout("N/C(=N\\OC(=O)/C=C/c1ccccc1)c1ccc(Br)cc1")
-3.57

Req: Reported inhibition for COc1ccccc1C(O)c1nccn1C (configuration not stated) : what is it?
Resp: 17.1

Req: Reported inhibition for O=C(O)C1Cc2ccccc2CN1S(=O)(=O)c1ccccc1 (configuration not stated) : what is it?
Resp: -12.7

----------
The reader will find reported binding (% of control) values listed item by item below.
Tested on: anti-desmoglein-3 scFv antibody binding to human DSG3
Assay: blockers of pathogenic pemphigus antibody–desmoglein-3 binding – biochemical, validation compound set, bead-based, flow cytometry, pilot screen (AID 588368);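 also: signal is the median channel fluorescence of bead-bound GFP antibody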
Conditions: Protein G beads, DSG3-Fc, scFv-GFP binding, at 10 µM, stronger effect = lower value
Provide the reading as a plain figure in %.

Look over these answered cases.
>>> numeric_readout("CC1=NS(=O)(=O)c2cc(Cl)ccc2N1")
101
>>> numeric_readout("NS(=O)(=O)c1cc(C2(O)NC(=O)c3ccccc32)ccc1Cl (stereo unspecified)")
105
>>> numeric_readout("COc1ccc(C(=O)NCC2OCCc3ccccc32)cc1 (stereo unspecified)")
103
>>> numeric_readout("O=C(Oc1ccccc1)Oc1ccc2c(c1)oc(=O)c1ccccc12")
94.7

Req: // map Cc1nc(NC(CC(C)C)C(=O)O)c2nc(C)oc2n1 (stereo unspecified) to recorded binding (% of control) (system: anti-desmoglein-3 scFv antibody binding to human DSG3)
Resp: 102

Req: // map `COc1ccc(S(N)(=O)=O)cc1C(N)=O` to recorded binding (% of control) (system: anti-desmoglein-3 scFv antibody binding to human DSG3)
Resp: 91.1

----------
Target: GTPase HRas (Homo sapiens)
Assay: Ras wt fluorescent GTP loading blockade – biochemical, wildtype, multiplex bead flow cytometry, dose response (AID 1335)
Conditions: bead-based flow cytometry, Bodipy-GTP binding to GST-Ras; at 100 µM (top of the series) unless noted
Exam item: assign class 1 to entries whose GTP binding, percent of control is below 60% and class 0 to entries at or above 60%. Note that a value of exactly 60% receives class 0.

Req: Given `CC(C)Nc1nnc(SCC(=O)Nc2ccc3c(c2)C(=O)c2ccccc2C3=O)s1` , is recorded GTP binding, percent of control strictly lower than 60%?
Resp: class 1

----------
Assay: TOR pathway LAP4-GFP level changes – S. cerevisiae, multiplex flow cytometry, primary screen (AID 1873)
Details: S. cerevisiae LAP4-GFP expression, 3 h, at 10 µM, stronger effect = higher value
Records with an inconclusive call do not appear.
The reader will find reported GFP response vs DMSO values listed item by item below.
Provide the reading as a plain figure in %.

>>> numeric_readout("COc1ccc(-c2[nH]ncc2CN(C)C(C)c2ccon2)c(OC)c1 (centres undefined)")
78.7
>>> numeric_readout("O=C(O)CCNC(=O)c1ccccc1")
82
>>> numeric_readout("O=C(O)CCCc1ccccc1")
76.9
>>> numeric_readout("Cc1ccc2c(ccc(=S)n2C)c1")
93.3
>>> numeric_readout("O=C(O)CCSCCC(=O)O")
97.3
>>> numeric_readout("COc1ccc(CCN2CNc3c(c(=O)n(C)c(=O)n3C)C2)cc1OC")
118
>>> numeric_readout("Cc1ccc2[nH]c3c(=O)n(CCc4cnc[nH]4)cnc3c2c1")
97
>>> numeric_readout("CCN(CC)CCNC(=O)c1ccc(N)cc1")
89.4
>>> numeric_readout("COC(=O)c1ccccc1NC(=O)NCc1ccccc1")
85.8
>>> numeric_readout("Fc1ccccc1CNCCC(Cc1ccccc1)c1ccc2c(c1)OCO2 (centres undefined)")
90.2

Req: Reported GFP response vs DMSO for `Nc1ccc2cn[nH]c2c1` : what is it?
Resp: 101

Req: Reported GFP response vs DMSO for `COc1ccc(C(Cl)=C(c2ccc(OC)cc2)c2ccc(OC)cc2)cc1` : what is it?
Resp: 90.7

Req: Reported GFP response vs DMSO for `O=C(NO)c1ccccc1O` : what is it?
Resp: 94.8

Req: Reported GFP response vs DMSO for `Cc1cc(=O)c2c(O)c(O)ccc2o1` : what is it?
Resp: 90.7
